test: Inhibition of GARFTase in human KB cells expressing RFC/FRalpha/PCFT assessed as reduction in cell growth after 96 hrs in presence of folic acid by Cell-Titer Blue assay
metricName: IC50

molecularstring=Nc1nc2[nH]c(CCCOc3ccc(C(=O)N[C@@H](CCC(=O)O)C(=O)O)cc3)cc2c(=O)[nH]1 assayvalue="> 1 µM"
molecularstring=Nc1nc2[nH]c(CCCNc3ccc(C(=O)N[C@@H](CCC(=O)O)C(=O)O)cc3)cc2c(=O)[nH]1 assayvalue="> 1 µM"

Please look at the following compound next.
(Q) Would you mind telling me what IC50 value was observed for `Nc1nc2[nH]c(CCCN(C=O)c3ccc(C(=O)N[C@@H](CCC(=O)O)C(=O)O)cc3)cc2c(=O)[nH]1` ?
(A) > 1 µM

---

# IC50 annotations
test: Inhibition of GARFTase in human KB cells expressing RFC/FRalpha/PCFT assessed as reduction in cell growth after 96 hrs in presence of folic acid by Cell-Titer Blue assay

Here are 3 compounds together with their reported answers.
molecularstring=CC(=O)N(CCCc1cc2c(=O)[nH]c(N)nc2[nH]1)c1ccc(C(=O)N[C@@H](CCC(=O)O)C(=O)O)cc1 metricname=IC50 assayvalue="> 1000 nM"
molecularstring=Nc1nc2[nH]c(CCNc3ccc(C(=O)N[C@@H](CCC(=O)O)C(=O)O)cc3)cc2c(=O)[nH]1 metricname=IC50 assayvalue="666 nM"
molecularstring=Nc1nc2[nH]c(CCCN(C(=O)C(F)(F)F)c3ccc(C(=O)N[C@@H](CCC(=O)O)C(=O)O)cc3)cc2c(=O)[nH]1 metricname=IC50 assayvalue="> 1000 nM"

Let us examine a further case.
(Q) Looking for the measured IC50 of `Nc1nc2[nH]c(CCCSc3ccc(C(=O)N[C@@H](CCC(=O)O)C(=O)O)cc3)cc2c(=O)[nH]1` , can you help?
(A) 757 nM

---

experiment: Inhibition of GARFTase in human KB cells expressing RFC/FRalpha/PCFT assessed as reduction in cell growth after 96 hrs by Cell-Titer Blue assay
Overview of recorded IC50 for various molecules
Only the number, expressed in nM, is required.

Answered examples (2):
molecularstring=Nc1nc2[nH]c(CCCOc3ccc(C(=O)N[C@@H](CCC(=O)O)C(=O)O)cc3)cc2c(=O)[nH]1 assayvalue=2.5
molecularstring=Nc1nc2[nH]c(CCCNc3ccc(C(=O)N[C@@H](CCC(=O)O)C(=O)O)cc3)cc2c(=O)[nH]1 assayvalue=0.95

Turning now to a further molecule:
(Q) Reported IC50, molecule `CC(=O)N(CCCc1cc2c(=O)[nH]c(N)nc2[nH]1)c1ccc(C(=O)N[C@@H](CCC(=O)O)C(=O)O)cc1` : ____
(A) 40

---

// IC50 lookup, one value per entry
assay: Inhibition of GARFTase in human KB cells expressing RFC/FRalpha/PCFT assessed as reduction in cell growth after 96 hrs by Cell-Titer Blue assay
// note: answer is a bare numeric in nM

molecularstring=Nc1nc2[nH]c(CCNc3ccc(C(=O)N[C@@H](CCC(=O)O)C(=O)O)cc3)cc2c(=O)[nH]1 metricname=IC50 assayvalue=0.32

(Q) What IC50 value was documented for this compound, `Nc1nc2[nH]c(CCCN(C(=O)C(F)(F)F)c3ccc(C(=O)N[C@@H](CCC(=O)O)C(=O)O)cc3)cc2c(=O)[nH]1` ?
(A) 5.4

(Q) Next up: `Nc1nc2[nH]c(CCCN(C=O)c3ccc(C(=O)N[C@@H](CCC(=O)O)C(=O)O)cc3)cc2c(=O)[nH]1`
(A) 13

(Q) What do you have for `Nc1nc2[nH]c(CCCSc3ccc(C(=O)N[C@@H](CCC(=O)O)C(=O)O)cc3)cc2c(=O)[nH]1` ?
(A) 0.3
